Test: APR_HepG2_MitoticArrest_24hr: Apredica 24-hour HepG2 Assay for Mitotic Arrest (AID 2282910)
Settings: high-content imaging, actives raise or lower the signal
Activity calls are given as the source filed them. Rule for the calls: active = hit-call score of the fitted dose curve at least 0.9, where 1 is the maximum; inactive = score below 0.9.
Tick one outcome: yes = active, no = inactive

[[record]]
molecule = "CCCCOC(=O)c1ccccc1C(=O)OCCCC"
assigned_category = "no"

[[record]]
molecule = "CCNc1nc(Cl)nc(NCC)n1"
assigned_category = "no"

[[record]]
molecule = "COc1cnc(OC)n2nc(NS(=O)(=O)c3c(OCC(F)F)cccc3C(F)(F)F)nc12"
assigned_category = "no"


Which result was noted for this molecule in the test: `O=C(Nc1ccccc1)Nc1ccnc(Cl)c1` no

Which result was noted for this molecule in the test: OC(c1ccc(Cl)cc1)(c1cncnc1)c1ccccc1Cl (stereo unspecified) yes
